Hey, just so you know, these numbers are from ChEMBL document CHEMBL1201862.

System: COLO 205
Experiment: NCI tumour cell line growth inhibition, 48 h
The source made the active and inactive calls. No stated cut-off is given here; in the data, active = GI50 up to about 1.1 µM and inactive = higher.
Your reply should match one of these outcome classes. YES = active, NO = inactive

Query string: Returns: the outcome recorded for Cn1c2c(c3ccccc31)CCN1C(=O)C34CCCC3CC21S4 (stereo unspecified) in this assay.
Result string: NO

Query string: Please let me know the test result on file for Cc1cn2cc(-c3cccs3)nc2s1 .
Result string: NO

Query string: Assay result, entry Oc1nc(S)nc(SCc2c(Cl)c(Cl)c(Cl)c(Cl)c2Cl)n1 — outcome?
Result string: NO

Query string: I'd appreciate the recorded outcome for COc1ccc([N+](=O)[O-])c2c(NCCCN(C)C)c3ccccc3nc12 from this test.
Result string: YES

Query string: I would be grateful if you could indicate the recorded call for O=C(c1ccco1)N(C(=S)N1CCN(c2ccccn2)CC1)c1ccccc1 .
Result string: NO

Query string: What classification did COC(=O)C(C)Sc1nc2cc(Cl)ccc2s1 (stereo unspecified) end up with in this test?
Result string: NO
